src = paper PMC2831097

Each entry below carries its reported IC50.
Target: recombinant iNOS (Mus musculus)
Test: NOS activity assay, conversion of L-[14C(U)]-arginine to L-[14C(U)]-citrulline, iNOS
Conditions: 50 µM L-arginine, 30 min at 37°C, pH 7.4; means ± SD (n = 4)
Measurement Label: IC50

Molecule: CN(C)C(=N)NCCCC(N)C(=O)O [ADMA, asymmetric N^G,N^G-dimethyl-L-arginine, reference compound]
Measurement Label: IC50
Reported Measurement: 24 µM
--
Molecule: CC1NC(NCCCC(N)C(=O)O)=NC1=O (centres unmarked)
Measurement Label: IC50
Reported Measurement: 2970 µM
--
Molecule: CC(NC(=N)NCCCC(N)C(=O)O)C(=O)O (centres unmarked)
Measurement Label: IC50
Reported Measurement: > 5000 µM
--
Molecule: N=C(NCCCC(N)C(=O)O)NCC(=O)O (centres unmarked)
Measurement Label: IC50
Reported Measurement: 1160 µM
--
Molecule: NC(CCCCNCC(=O)O)C(=O)O (centres unmarked)
Measurement Label: IC50
Reported Measurement: > 5000 µM
